Test system: MS2 coat protein
Test: apparent KD of MS2 coat protein; designed switch direction (-1 OFF switch, 1 ON switch): -1; higher = weaker reporter binding
Conditions: Eterna round: R95; input ligand: microRNA oligo, concentration not stated
# class assignment by measured apparent KD of MS2 coat protein: interval 1 (below 0.02 µM), interval 2 (0.02 µM to below 0.06 µM), interval 3 (0.06 µM or more)

- AGGUAACAUGAGGAUCACCCAUGUCAGGAUAUCAGUAAGAUUAGAAUAGAGUAGAGUAUGAGAAGGGACUAUAU [Excluse me! 20 - Jieux - Exclusion 1] (puzzle: Exclusion 1): interval 2
- AAGAAACAUGAGGAUCACCCAUGUCAGGAUAUCCGAAAAGAAAAGAAAAGAAAAGAAAGGAGAAGGGACAAAAG [Default title] (puzzle: Exclusion 1): interval 2
- UUAUAAAGUGUGAGGAUAUGCUGGUCGAUAGAUCAGCAGAAGGCACAUGAGGAUCACCCAUGUAAUAUAUUUUU [Mat - Exclusion 4 - JL Mod - D44] (puzzle: Brourd's mod of Exclusion 4): interval 2

Q) Which apparent KD of MS2 coat protein category applies to GAUAGAGAGCAGGAUAUCUUGGAUAAGUGUUGUAGAGAAGGGCUCACAUGAGGAUCACCCAUGUGGUCCUAGAU [JL Dibiri mod 09] (puzzle: Exclusion 6) here?
A) interval 1

Q) Which apparent KD of MS2 coat protein category applies to UAUUAACAAGCAAGAUCCUACAUGAGGAUCACCCAUGUGCUCGUCUUAUAAGGUACUGUGACGAAAGUCACGGUACC [Sensor 3, v1 - 70] (puzzle: Sensor v3, turn-off variant 1) here?
A) interval 2

Q) Which apparent KD of MS2 coat protein category applies to GAAAAGGUAGGAUAUACGAAAAAAAAGGGUAGAGAAAAAACACAUGAGGAUCACCCAUGUAGAAGGACCAAAAG [salish99_ex2_r3_023] (puzzle: Exclusion 2) here?
A) interval 2

Q) Which apparent KD of MS2 coat protein category applies to CAUACUAAAGUCAGGAUAUGCGGUCGAAUACGGGCGUAGAAGGGACAUGAGGAUCACCCAUGUAGAUAGUAAAG [EX-4 Malc #19] (puzzle: Brourd's mod of Exclusion 4) here?
A) interval 1

Q) Which apparent KD of MS2 coat protein category applies to UGGGAACGAGGAUAUCGAUGGUGGAACAUGAGGAUCACCCAUGUAUGAGAUAGUGUAGGGCGAGAAGGCGUUAAGU [JR_E5_Sub052] (puzzle: Exclusion 5) here?
A) interval 3

Q) Which apparent KD of MS2 coat protein category applies to GAAAACCAAGGAUAUACAUGAGGAUCACCCAUGUAGGUUGGGACGCCAUAAAGGCGAUGUAGAAGGUGGGAAAA [Inansoge] (puzzle: Exclusion 3) here?
A) interval 2

Q) Which apparent KD of MS2 coat protein category applies to AGAUGUAGAUACCGAUCCUACAUGAGGAUCACCCAUGUAGCUAGACGUGCGGGCGGCGCUCGUCGGACUACCAGUAG [salish99_TOv1_r3_095] (puzzle: Sensor v3, turn-off variant 1) here?
A) interval 3

Q) Which apparent KD of MS2 coat protein category applies to UUUAAUUUUUUUUUUUUACAAGCUUUUUGCUCGUCUUAUACAUGAGGAUCACCCAUGUGAGUGGGAAGUAAAUUAUC [JMF 55] (puzzle: Sensor v3, turn-off variant 2) here?
A) interval 3

Q) Which apparent KD of MS2 coat protein category applies to AGAUGGCGAGGAUAUACAUGAGGAUCACCCAUGUGAAGAUAAAGAGUGAGGAAGAAAAGUAGAAGGCGCUGUCA [Mat - Exclusion 3 - Mod of Salish D28] (puzzle: Exclusion 3) here?
A) interval 3

Q) Which apparent KD of MS2 coat protein category applies to UAAUUUAGUGUGAGGAUAUGCUGGUCGAUAGAUCAGCAGAAGGCACAUGAGGAUCACCCAUGUAAUAUAUUAAA [Mat - Exclusion 4 - JL Mod - D35] (puzzle: Brourd's mod of Exclusion 4) here?
A) interval 3

Q) Which apparent KD of MS2 coat protein category applies to GAUUAUGCGAGCUUUAGGGACAUGAGGAUCACCCAUGUUCGUCUUAUUAGUCUAAAUACGCUGACAUACCUAAAUCU [JMF 94] (puzzle: Sensor v3, turn-off variant 1) here?
A) interval 1

The reported numbers originate from the supplement of paper PMC9170038.
